Target: hT2R8 (Homo sapiens (Human), UniProt Q9NYW2)
Sequence (Q9NYW2 whole entry): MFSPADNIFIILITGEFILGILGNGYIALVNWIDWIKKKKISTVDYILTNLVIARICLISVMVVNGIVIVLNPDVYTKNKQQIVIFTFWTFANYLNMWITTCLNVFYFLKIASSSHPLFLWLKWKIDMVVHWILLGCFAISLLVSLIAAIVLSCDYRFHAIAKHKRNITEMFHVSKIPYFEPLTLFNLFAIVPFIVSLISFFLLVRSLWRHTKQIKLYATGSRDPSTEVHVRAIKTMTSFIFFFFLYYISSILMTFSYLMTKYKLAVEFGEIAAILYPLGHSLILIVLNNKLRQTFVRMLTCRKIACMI
Test: hT2R8 antagonist high-throughput FLIPR assay, stable cell line with G16g44, agonist andrographolide
Assay type: cell-based
Conditions: Table A; read-out: hT2R8 IC50
pIC50: −log10 of the molar value.
Note to self: values exactly at 6 are 1. So pIC50 at or above 6 is 1, below is -1.

Previously resolved entries follow.
Cc1noc(C)c1Cn1cc(NC(=S)Nc2ccccc2F)cn1; -1
Cc1noc(C)c1Cn1cc(NC(=O)c2cc3c(cc2Cl)OCCO3)cn1; 1

Query string: Kindly determine if pIC50 recorded for "COc1cccc(C(=O)Nc2cnn(Cc3c(C)noc3C)c2)c1OC" is above or exactly 6.
Result string: 1

Provenance of the data: patent US9247759B2
